Below, each entry is listed with its recorded cytotoxicity at 10 µM.
Assay: Toxicity liver stage against HepG2, at 10uM
Format: cell-based
Design: test concentration 10 uM, cell line HepG2-A16-CD81EGFP
Settings: human, HepG2-A16-CD81EGFP cells; read-out: INHIBITION
observation_type: cytotoxicity at 10 µM (%)

[
  {
    "compound": "CCOCC1CN(Cc2cccc(C#N)c2)Cc2nccn2C1 (stereo unspecified)",
    "units_text": "%",
    "measured_value": -8.22
  },
  {
    "compound": "Cc1cnc(CN2C[C@H]3CC(Oc4ccccc4)C[C@H]3C2)cn1 (stereo partly specified)",
    "units_text": "%",
    "measured_value": -24.3
  },
  {
    "compound": "O=C(CCc1cccs1)N1CCCCC1Cn1cccn1 (stereo unspecified)",
    "units_text": "%",
    "measured_value": 1.54
  },
  {
    "compound": "Cc1noc(C(C)C)c1C(=O)NCc1cccc(CN(C)C)c1",
    "units_text": "%",
    "measured_value": -8.23
  },
  {
    "compound": "O=C1CC(N(C(=O)c2ccc(F)c(C(F)(F)F)c2)C2CC2)C(=O)N1 (stereo unspecified)",
    "units_text": "%",
    "measured_value": -10.5
  },
  {
    "compound": "CC(C)(O)c1cn(C[C@H]2C[C@@H]3CCN2C[C@@H]3C(=O)N2CCOCC2)nn1",
    "units_text": "%",
    "measured_value": 3.49
  },
  {
    "compound": "CC(C)(NS(C)(=O)=O)c1nc(-c2cccc(Cl)c2)no1",
    "units_text": "%",
    "measured_value": 2.31
  },
  {
    "compound": "O=C(Nc1cnn(CC(=O)N2CCCCO2)c1)c1ccsc1",
    "units_text": "%",
    "measured_value": -1.23
  },
  {
    "compound": "COCC1CN(C(=O)[C@H]2CCCO2)Cc2nnn(CC3CC3)c21 (stereo partly specified)",
    "units_text": "%",
    "measured_value": -1.59
  },
  {
    "compound": "CCCN1CC(C(=O)Nc2ccccn2)CC1=O (stereo unspecified)",
    "units_text": "%",
    "measured_value": -16.4
  },
  {
    "compound": "O=C(Cc1ccc2c(c1)OCCO2)N1CCCC(n2ccnc2)C1 (stereo unspecified)",
    "units_text": "%",
    "measured_value": 3.8
  }
]

###

Assay: Toxicity liver stage against HepG2, at 10uM
Format: cell-based
Design: test concentration 10 uM, cell line HepG2-A16-CD81EGFP
Conditions: human, HepG2-A16-CD81EGFP cells; read-out: INHIBITION

[
  {
    "compound": "Cc1nc(-c2ccsc2)sc1C(=O)N1CCn2c(C)nnc2C1",
    "cytotoxicity at 10 µM / %": -3.29
  },
  {
    "compound": "CC(C)NC(=O)NCC(Cc1ccc(F)cc1)C(N)=O (centres undefined)",
    "cytotoxicity at 10 µM / %": 12.8
  },
  {
    "compound": "Cc1nc(CNC(=O)N2CCN(c3ccc(Cl)cn3)CC2)no1",
    "cytotoxicity at 10 µM / %": -13.1
  },
  {
    "compound": "COc1ccccc1C(C#N)NC(=O)c1cccc2c1oc(=O)n2C (centres undefined)",
    "cytotoxicity at 10 µM / %": 3.3
  },
  {
    "compound": "CCOCCC(=O)NCc1ccnc(NC2CC2)c1",
    "cytotoxicity at 10 µM / %": 0.545
  },
  {
    "compound": "Cc1ccc2c(c1)OC(C)CN2C(=O)c1c[nH]c(C)cc1=O (centres undefined)",
    "cytotoxicity at 10 µM / %": 2.36
  },
  {
    "compound": "CCn1nc(C)cc1C(=O)N1C[C@@H]2C[C@@H](C)O[C@@H]2C1",
    "cytotoxicity at 10 µM / %": 5.53
  },
  {
    "compound": "COc1ncccc1CNC(=O)Nc1cc(C)nn1C",
    "cytotoxicity at 10 µM / %": -5.13
  },
  {
    "compound": "CCOc1ccc(N(C)Cc2nnc(C3CC3)o2)cc1",
    "cytotoxicity at 10 µM / %": 8.17
  },
  {
    "compound": "CO[C@H]1CN(Cc2nc3ccccc3n2C)C[C@@]12CCCO2",
    "cytotoxicity at 10 µM / %": 4.32
  },
  {
    "compound": "CN(Cc1ccc(Cl)s1)C(=O)c1cccc(OCC(N)=O)c1",
    "cytotoxicity at 10 µM / %": -1.61
  },
  {
    "compound": "Cc1cc(N2CCC(c3nccn3Cc3cscn3)CC2)ccn1",
    "cytotoxicity at 10 µM / %": -4.72
  },
  {
    "compound": "Cc1nnc(CCNC(=O)C(c2ccc(F)cc2)N(C)C)[nH]1 (centres undefined)",
    "cytotoxicity at 10 µM / %": -5.96
  },
  {
    "compound": "COCCN(C)C(=O)c1nc2c(s1)CCCN2S(C)(=O)=O",
    "cytotoxicity at 10 µM / %": -143
  },
  {
    "compound": "O=C(C1SCCc2sccc21)N1CCN(C2CC2)C(=O)C1 (centres undefined)",
    "cytotoxicity at 10 µM / %": 3.24
  },
  {
    "compound": "O=C(O)c1ccc(N2CCC(Oc3ccc(Cl)cc3)CC2)nc1",
    "cytotoxicity at 10 µM / %": -55.6
  },
  {
    "compound": "CCN(C(=O)C1CC1)C(c1cccnc1)c1ccc2c(c1)CCO2 (centres undefined)",
    "cytotoxicity at 10 µM / %": 1.46
  },
  {
    "compound": "O=C([C@H]1CCCO1)N1CCc2ncnc(C3CC3)c2CC1",
    "cytotoxicity at 10 µM / %": 4.79
  },
  {
    "compound": "CCCn1cc(-c2cc(C(=O)N(C)C)c3ccc(C)cc3n2)cn1",
    "cytotoxicity at 10 µM / %": 4.99
  },
  {
    "compound": "CCC1(C(=O)O)CCCN(C(=O)c2ccc(O)c(Cl)c2)C1 (centres undefined)",
    "cytotoxicity at 10 µM / %": -8.87
  },
  {
    "compound": "CN(C)CCO[C@H]1C[C@@H](O)C12CCN(c1cnccn1)CC2",
    "cytotoxicity at 10 µM / %": 3.79
  },
  {
    "compound": "O=C(C1CCC1)N1C[C@@H](c2ccsc2)[C@@H]2CN(C3CCCC3)CC[C@@H]21",
    "cytotoxicity at 10 µM / %": -1.51
  },
  {
    "compound": "O=C(NCc1cccnc1N1CCc2ccccc2C1)c1cc(=O)[nH][nH]1",
    "cytotoxicity at 10 µM / %": 6.99
  },
  {
    "compound": "Cn1cnnc1C1CCCN(C(=O)NCCn2ccnc2)C1 (centres undefined)",
    "cytotoxicity at 10 µM / %": -2.74
  }
]

###

Experiment: Toxicity liver stage against HepG2, at 10uM
Type: cell-based
Parameters: test concentration 10 uM, cell line HepG2-A16-CD81EGFP
Details: human, HepG2-A16-CD81EGFP cells; read-out: INHIBITION

[
  {
    "molecule": "COCCN1C[C@H]2CN(Cc3cccc(OC(F)(F)F)c3)CCN2C1=O",
    "cytotoxicity at 10 µM / %": 2.67
  },
  {
    "molecule": "CCN(CC)CCCNCC1CCOC(C)(C)C1 (stereo not given)",
    "cytotoxicity at 10 µM / %": -6.01
  },
  {
    "molecule": "Cc1cc(NC(=O)CN2CCn3c(nnc3-c3ccccc3)C2)no1",
    "cytotoxicity at 10 µM / %": -2.38
  },
  {
    "molecule": "Cc1nc(CN2CCO[C@@H]3CN(C(=O)CC4CC4)CC[C@@H]3C2)cs1",
    "cytotoxicity at 10 µM / %": 3.79
  },
  {
    "molecule": "O=C(Cc1cccs1)N1C[C@@H]2CN(Cc3ccoc3)CCO[C@@H]2C1",
    "cytotoxicity at 10 µM / %": -70.8
  }
]

###

Below, each entry is listed with its recorded cytotoxicity at 10 µM.
Experiment: Toxicity liver stage against HepG2, at 10uM
Assay type: cell-based
Design: test concentration 10 uM, cell line HepG2-A16-CD81EGFP
Conditions: human, HepG2-A16-CD81EGFP cells; read-out: INHIBITION

[
  {
    "compound": "CS(=O)(=O)N1CCN(Cc2c(O)ccc3oc4c(c23)CCCC4)CC1",
    "cytotoxicity at 10 µM, %": 1.01
  },
  {
    "compound": "Cc1cccc(CN2CCN(c3nc(CO)cs3)CC2)c1",
    "cytotoxicity at 10 µM, %": -11.6
  },
  {
    "compound": "Cc1csc(C2(NCc3csc(C4CC4)n3)CCCC2)n1",
    "cytotoxicity at 10 µM, %": 4.32
  },
  {
    "compound": "COC(=O)N1CCCC(NC(=O)NCc2cccc(C)n2)C1 (configuration not stated)",
    "cytotoxicity at 10 µM, %": -8.62
  },
  {
    "compound": "O=C(NCC1(O)CCOc2ccccc21)Nc1ccc2c(c1)OCO2 (configuration not stated)",
    "cytotoxicity at 10 µM, %": -5.12
  },
  {
    "compound": "c1cc(CN2CCc3c(nnn3CC3CC3)C2COCC2CC2)co1 (configuration not stated)",
    "cytotoxicity at 10 µM, %": 2.02
  },
  {
    "compound": "CC(C)(C)c1ncc2c(n1)CN(c1cc(NCCO)nc(N)n1)C2",
    "cytotoxicity at 10 µM, %": 3.5
  },
  {
    "compound": "CSCC(=O)Nc1ncc(I)cc1C",
    "cytotoxicity at 10 µM, %": -4.7
  },
  {
    "compound": "Cc1nc(C)n(CC2CCCN2Cc2cn3c(C)cccc3n2)n1 (configuration not stated)",
    "cytotoxicity at 10 µM, %": 2.02
  },
  {
    "compound": "CC1CN(C)CCN1C(=O)c1ccn(-c2ccccc2Cl)n1 (configuration not stated)",
    "cytotoxicity at 10 µM, %": -6.33
  },
  {
    "compound": "CC(=O)NCC1CN(c2ccc3c(Cl)ccnc3c2F)CCO1 (configuration not stated)",
    "cytotoxicity at 10 µM, %": 5.29
  },
  {
    "compound": "COc1ccc(OC)c(-n2cnnc2COC(C)C)c1",
    "cytotoxicity at 10 µM, %": -6.57
  }
]

Origin of measurements: ChEMBL document CHEMBL4513216
